# ASSAY OVERVIEW: Plasma pharmacokinetics of FGF401 (noncompartmental) and food effect
# Format: in vivo, human
# DETAILS: human, plasma, oral, 50 mg, Cycle 1 day 8; 50 mg Fasted; n=7; geometric mean (CV%); read-out: AUClast
ASSAY METRIC: AUC(0-t) (ng·h/mL)
Give a bare numeral; the unit ng·h/mL is implied.

-- ask Which value of AUC(0-t) has been reported for COCCNc1cc(NC(=O)N2CCCc3cc(CN4CCN(C)CC4=O)c(C=O)nc32)ncc1C#N [FGF401, roblitinib] in the records?
-- reply 3460

====

# ASSAY OVERVIEW: Plasma pharmacokinetics of FGF401 (noncompartmental) and food effect
# Type: in vivo, human
# DETAILS: human, plasma, oral, 50 mg, Cycle 1 day 8; 50 mg Fasted; n=6; geometric mean (CV%)
ASSAY METRIC: AUC(0-inf) (ng·h/mL)
Give a bare numeral; the unit ng·h/mL is implied.

-- ask Which value of AUC(0-inf) has been reported for COCCNc1cc(NC(=O)N2CCCc3cc(CN4CCN(C)CC4=O)c(C=O)nc32)ncc1C#N [FGF401, roblitinib] in the records?
-- reply 3650
